Test system: Escherichia coli TOP10;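 note: peptides expressed intracellularly from a pBAD plasmid library in pooled LB shake-flask culture, induced with 0.3% L-arabinose, DNA abundance read by NGS, three biological replicates, DESeq2 with apeglm shrinkage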
experimentNotes: shrunken log2 fold change of peptide-encoding DNA abundance (4.5 h post-induction vs induction); higher = less antimicrobial activity (less host growth inhibition)
setupConditions: time post-induction: 4.5 h; library: site-saturation at positions 5, 18, 19, 20
parameter: shrunken log2 fold change

1. RRIRKRPPRLPRPRPRPRGHPRP :: 0.189
2. RRIRWRPPRLPRPRPRPITIPRP :: -0.162
3. RRIRYRPPRLPRPRPRPVLFPRP :: -0.598
4. RRIRDRPPRLPRPRPRPGDWPRP :: 0.92
5. RRIRTRPPRLPRPRPRPDRYPRP :: 0.04
6. RRIRYRPPRLPRPRPRPNMLPRP :: -1.22
7. RRIRCRPPRLPRPRPRPESTPRP :: 0.0373
8. RRIRCRPPRLPRPRPRPSFPPRP :: -0.608
9. RRIRSRPPRLPRPRPRPTAEPRP :: 0.825
10. RRIRHRPPRLPRPRPRPHWLPRP :: -0.123
11. RRIRFRPPRLPRPRPRPTSMPRP :: -0.00284
12. RRIRPRPPRLPRPRPRPKCMPRP :: -0.222
13. RRIRFRPPRLPRPRPRPIEQPRP :: 0.0187
14. RRIRERPPRLPRPRPRPWWPPRP :: -0.155
15. RRIRFRPPRLPRPRPRPFKSPRP :: 0.0901
16. RRIRRRPPRLPRPRPRPRAFPRP :: 0.605
17. RRIRMRPPRLPRPRPRPNLSPRP :: -0.436
18. RRIRARPPRLPRPRPRPFDLPRP :: 0.0229
19. RRIRMRPPRLPRPRPRPECPPRP :: 0.43
20. RRIRARPPRLPRPRPRPRNTPRP :: 0.146
21. RRIRERPPRLPRPRPRPSVQPRP :: -0.204
22. RRIRIRPPRLPRPRPRPRLSPRP :: -0.325
23. RRIRARPPRLPRPRPRPQASPRP :: 0.242
24. RRIRYRPPRLPRPRPRPLKIPRP :: -0.134
25. RRIRQRPPRLPRPRPRPEDFPRP :: -0.0175
26. RRIRHRPPRLPRPRPRPICSPRP :: 0.0153
27. RRIRLRPPRLPRPRPRPQVPPRP :: -0.0408
28. RRIRRRPPRLPRPRPRPAYGPRP :: 0.286
29. RRIRFRPPRLPRPRPRPTIDPRP :: 0.103
30. RRIRSRPPRLPRPRPRPHYHPRP :: -0.696
31. RRIRKRPPRLPRPRPRPCGYPRP :: 0.25
32. RRIRDRPPRLPRPRPRPRMHPRP :: -0.268
